Origin of values: paper PMC12030706

Reported tissue uptake at 1 h values follow for various molecules
- experiment-description: Ex vivo biodistribution in PC-3 tumor-bearing mice
- experimental-conditions: mouse, brain, 100 ug, Uptake in brain, 1 h blocked (co-injected with 100 µg [D-Phe6,Leu-NHEt13,des-Met14]Bombesin(6-14))
Numbered stars: 1 amine (or outer) side, 2 acyl side, 3 side chain; on linkers, the order of the positions; unused ones are H or OH. Square brackets hold non-standard residues; d marks the D form. Peptide text beside a SMILES is read from it. * marks the point of attachment. DOTA = O=C(O)CN1CCN(CC(=O)O)CCN(CC(=O)*)CCN(CC(=O)O)CC1; NMeH = CN[C@@H](Cc1c[nH]cn1)C(=O)O; X1 = O=C(CN1CCC(N[*:1])CC1)[*:2]; Tle = CC(C)(C)[C@H](N)C(=O)O; Thz = O=C(O)[C@@H]1CSCN1
Express it in %ID/g; write the number only.

See these solved cases before continuing.
CC(C)C[C@@H](CN1CSC[C@H]1C(N)=O)NC(=O)[C@H](Cc1cnc[nH]1)NC(=O)CN(C)C(=O)[C@@H](NC(=O)[C@H](C)NC(=O)[C@H](Cc1c[nH]c2ccccc12)NC(=O)[C@H](CCC(N)=O)NC(=O)[C@@H](Cc1ccccc1)NC(=O)CN1CCC(NC(=O)CN2CCN(CC(=O)O)CCN(CC(=O)O)CCN(CC(=O)O)CC2)CC1)C(C)C [[^177Lu]Lu-TacsBOMB5, metal not drawn]: 0.02
CC(C)C[C@H](NC(=O)[C@H](Cc1cnc[nH]1)N(C)C(=O)CNC(=O)[C@@H](NC(=O)[C@H](C)NC(=O)[C@H](Cc1c[nH]c2ccccc12)NC(=O)[C@H](CCC(N)=O)NC(=O)[C@@H](Cc1ccccc1)NC(=O)CN1CCC(NC(=O)CN2CCN(CC(=O)O)CCN(CC(=O)O)CCN(CC(=O)O)CC2)CC1)C(C)(C)C)C(=O)N1CSC[C@H]1C(N)=O [[^177Lu]Lu-LW01110, metal not drawn]: 0.02

tissue uptake at 1 h reading for CC(C)C[C@H](NC(=O)[C@H](Cc1cnc[nH]1)N(C)C(=O)CNC(=O)[C@@H](NC(=O)[C@H](C)NC(=O)[C@H](Cc1c[nH]c2ccccc12)NC(=O)[C@H](Cc1c[nH]cn1)NC(=O)[C@@H](Cc1ccccc1)NC(=O)CN1CCC(NC(=O)CN2CCN(CC(=O)O)CCN(CC(=O)O)CCN(CC(=O)O)CC2)CC1)C(C)(C)C)C(=O)N1CSC[C@H]1C(N)=O [[^177Lu]Lu-LW01142, metal not drawn] ({DOTA}-[X1][dF]HWA[Tle]G[NMeH]L[Thz]-NH2) : 0.03

---

- experiment-description: Ex vivo biodistribution in PC-3 tumor-bearing mice
- experimental-conditions: mouse, heart, Uptake in heart, 4 h post-injection
measured-parameter: tissue uptake at 4 h (%ID/g)
Give a bare numeral; the unit %ID/g is implied.

Record CC(C)C[C@@H](CN1CSC[C@H]1C(N)=O)NC(=O)[C@H](Cc1cnc[nH]1)NC(=O)CN(C)C(=O)[C@@H](NC(=O)[C@H](C)NC(=O)[C@H](Cc1c[nH]c2ccccc12)NC(=O)[C@H](CCC(N)=O)NC(=O)[C@@H](Cc1ccccc1)NC(=O)CN1CCC(NC(=O)CN2CCN(CC(=O)O)CCN(CC(=O)O)CCN(CC(=O)O)CC2)CC1)C(C)C [[^177Lu]Lu-TacsBOMB5, metal not drawn] , field tissue uptake at 4 h: 0.21

---

- experiment-description: Ex vivo biodistribution in PC-3 tumor-bearing mice
- experimental-conditions: mouse, muscle, Uptake in muscle, 4 h post-injection
Numbered stars: 1 amine (or outer) side, 2 acyl side, 3 side chain; on linkers, the order of the positions; unused ones are H or OH. Square brackets hold non-standard residues; d marks the D form. Peptide text beside a SMILES is read from it. * marks the point of attachment. DOTA = O=C(O)CN1CCN(CC(=O)O)CCN(CC(=O)*)CCN(CC(=O)O)CC1; NMeH = CN[C@@H](Cc1c[nH]cn1)C(=O)O; X1 = O=C(CN1CCC(N[*:1])CC1)[*:2]; Tle = CC(C)(C)[C@H](N)C(=O)O; Thz = O=C(O)[C@@H]1CSCN1
measured-parameter: tissue uptake at 4 h (%ID/g)
Only the number, expressed in %ID/g, is required.

Recorded tissue uptake at 4 h (molecule CC(C)C[C@H](NC(=O)[C@H](Cc1cnc[nH]1)N(C)C(=O)CNC(=O)[C@@H](NC(=O)[C@H](C)NC(=O)[C@H](Cc1c[nH]c2ccccc12)NC(=O)[C@H](Cc1c[nH]cn1)NC(=O)[C@@H](Cc1ccccc1)NC(=O)CN1CCC(NC(=O)CN2CCN(CC(=O)O)CCN(CC(=O)O)CCN(CC(=O)O)CC2)CC1)C(C)(C)C)C(=O)N1CSC[C@H]1C(N)=O [[^177Lu]Lu-LW01142, metal not drawn] ({DOTA}-[X1][dF]HWA[Tle]G[NMeH]L[Thz]-NH2) ): 0.03

---

- experiment-description: Ex vivo biodistribution in PC-3 tumor-bearing mice
- experimental-conditions: mouse, small intestine, Uptake in small intestine, 72 h post-injection
Numbered stars: 1 amine (or outer) side, 2 acyl side, 3 side chain; on linkers, the order of the positions; unused ones are H or OH. Square brackets hold non-standard residues; d marks the D form. Peptide text beside a SMILES is read from it. * marks the point of attachment. DOTA = O=C(O)CN1CCN(CC(=O)O)CCN(CC(=O)*)CCN(CC(=O)O)CC1; NMeH = CN[C@@H](Cc1c[nH]cn1)C(=O)O; X1 = O=C(CN1CCC(N[*:1])CC1)[*:2]; Tle = CC(C)(C)[C@H](N)C(=O)O; Thz = O=C(O)[C@@H]1CSCN1
measured-parameter: tissue uptake at 72 h (%ID/g)
Please state the figure in %ID/g; there is no need to write the unit.

Notebook: CC(C)C[C@H](NC(=O)[C@H](Cc1cnc[nH]1)N(C)C(=O)CNC(=O)[C@@H](NC(=O)[C@H](C)NC(=O)[C@H](Cc1c[nH]c2ccccc12)NC(=O)[C@H](Cc1c[nH]cn1)NC(=O)[C@@H](Cc1ccccc1)NC(=O)CN1CCC(NC(=O)CN2CCN(CC(=O)O)CCN(CC(=O)O)CCN(CC(=O)O)CC2)CC1)C(C)(C)C)C(=O)N1CSC[C@H]1C(N)=O [[^177Lu]Lu-LW01142, metal not drawn] ({DOTA}-[X1][dF]HWA[Tle]G[NMeH]L[Thz]-NH2) , tissue uptake at 72 h read as 0.05

---

- experiment-description: Ex vivo biodistribution in PC-3 tumor-bearing mice
- experimental-conditions: mouse, kidneys, Uptake in kidneys, 72 h post-injection
Numbered stars: 1 amine (or outer) side, 2 acyl side, 3 side chain; on linkers, the order of the positions; unused ones are H or OH. Square brackets hold non-standard residues; d marks the D form. Peptide text beside a SMILES is read from it. * marks the point of attachment. DOTA = O=C(O)CN1CCN(CC(=O)O)CCN(CC(=O)*)CCN(CC(=O)O)CC1; NMeH = CN[C@@H](Cc1c[nH]cn1)C(=O)O; X1 = O=C(CN1CCC(N[*:1])CC1)[*:2]; Tle = CC(C)(C)[C@H](N)C(=O)O; Thz = O=C(O)[C@@H]1CSCN1
# key: entry, value: tissue uptake at 72 h

CC(C)C[C@H](NC(=O)[C@H](Cc1cnc[nH]1)N(C)C(=O)CNC(=O)[C@@H](NC(=O)[C@H](C)NC(=O)[C@H](Cc1c[nH]c2ccccc12)NC(=O)[C@H](Cc1c[nH]cn1)NC(=O)[C@@H](Cc1ccccc1)NC(=O)CN1CCC(NC(=O)CN2CCN(CC(=O)O)CCN(CC(=O)O)CCN(CC(=O)O)CC2)CC1)C(C)(C)C)C(=O)N1CSC[C@H]1C(N)=O [[^177Lu]Lu-LW01142, metal not drawn] ({DOTA}-[X1][dF]HWA[Tle]G[NMeH]L[Thz]-NH2): 0.6 %ID/g
CC(C)C[C@H](NC(=O)[C@H](Cc1cnc[nH]1)N(C)C(=O)CNC(=O)[C@@H](NC(=O)[C@H](C)NC(=O)[C@H](Cc1c[nH]c2ccccc12)NC(=O)[C@H](CCC(N)=O)NC(=O)[C@@H](Cc1ccccc1)NC(=O)CN1CCC(NC(=O)CN2CCN(CC(=O)O)CCN(CC(=O)O)CCN(CC(=O)O)CC2)CC1)C(C)(C)C)C(=O)N1CSC[C@H]1C(N)=O [[^177Lu]Lu-LW01110, metal not drawn]: < 1 %ID/g

Input CC(C)C[C@@H](CN1CSC[C@H]1C(N)=O)NC(=O)[C@H](Cc1cnc[nH]1)NC(=O)CN(C)C(=O)[C@@H](NC(=O)[C@H](C)NC(=O)[C@H](Cc1c[nH]c2ccccc12)NC(=O)[C@H](CCC(N)=O)NC(=O)[C@@H](Cc1ccccc1)NC(=O)CN1CCC(NC(=O)CN2CCN(CC(=O)O)CCN(CC(=O)O)CCN(CC(=O)O)CC2)CC1)C(C)C [[^177Lu]Lu-TacsBOMB5, metal not drawn] . Output tissue uptake at 72 h: 0.6 %ID/g
